tested on: VDR:RXRa (NR concentration 270 nM, RXRa partner concentration 90 nM); experiment: PBM binding z-score (relative to random genomic background probes); higher = stronger binding; sequences stand for … in GC…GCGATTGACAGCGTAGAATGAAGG
The threshold is inclusive: PBM binding z-score of exactly 2 counts as TRUE; values below receive FALSE.

{"seq": "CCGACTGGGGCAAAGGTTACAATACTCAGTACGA", "discrete_label": "FALSE"}
{"seq": "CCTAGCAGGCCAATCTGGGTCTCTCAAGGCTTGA", "discrete_label": "FALSE"}
{"seq": "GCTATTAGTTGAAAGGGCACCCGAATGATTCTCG", "discrete_label": "FALSE"}
{"seq": "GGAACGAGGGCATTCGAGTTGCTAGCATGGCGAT", "discrete_label": "TRUE"}
{"seq": "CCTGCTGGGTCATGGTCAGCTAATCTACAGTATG", "discrete_label": "FALSE"}
{"seq": "CCTAGTTGGTCAGGAGGTCACACACCGGATATGA", "discrete_label": "TRUE"}
{"seq": "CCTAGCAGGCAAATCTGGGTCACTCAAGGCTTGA", "discrete_label": "FALSE"}
{"seq": "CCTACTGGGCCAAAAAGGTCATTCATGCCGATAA", "discrete_label": "TRUE"}
{"seq": "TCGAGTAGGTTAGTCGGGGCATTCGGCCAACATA", "discrete_label": "TRUE"}
{"seq": "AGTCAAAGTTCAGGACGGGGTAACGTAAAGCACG", "discrete_label": "TRUE"}
{"seq": "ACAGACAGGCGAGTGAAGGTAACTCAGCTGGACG", "discrete_label": "FALSE"}
{"seq": "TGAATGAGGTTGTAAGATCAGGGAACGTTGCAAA", "discrete_label": "FALSE"}
{"seq": "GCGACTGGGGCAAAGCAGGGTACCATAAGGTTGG", "discrete_label": "FALSE"}
{"seq": "AGAATGAGGTTATCCGTAGATCAGGGAAGAAAGT", "discrete_label": "FALSE"}
{"seq": "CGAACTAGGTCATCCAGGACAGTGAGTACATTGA", "discrete_label": "TRUE"}
{"seq": "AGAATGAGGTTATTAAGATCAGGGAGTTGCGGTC", "discrete_label": "TRUE"}
{"seq": "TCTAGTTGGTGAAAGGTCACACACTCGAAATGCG", "discrete_label": "TRUE"}
{"seq": "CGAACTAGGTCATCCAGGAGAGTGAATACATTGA", "discrete_label": "TRUE"}
{"seq": "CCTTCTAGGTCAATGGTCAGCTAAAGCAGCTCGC", "discrete_label": "FALSE"}
{"seq": "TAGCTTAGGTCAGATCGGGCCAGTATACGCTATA", "discrete_label": "FALSE"}
{"seq": "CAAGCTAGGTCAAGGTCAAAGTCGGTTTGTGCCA", "discrete_label": "TRUE"}
{"seq": "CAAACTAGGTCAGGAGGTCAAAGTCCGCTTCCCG", "discrete_label": "TRUE"}
{"seq": "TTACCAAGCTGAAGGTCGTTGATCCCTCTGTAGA", "discrete_label": "FALSE"}
{"seq": "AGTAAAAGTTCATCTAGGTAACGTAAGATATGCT", "discrete_label": "TRUE"}

----------
tested on: PXR homodimer (NR concentration 270 nM); experiment: PBM binding z-score (relative to random genomic background probes); higher = stronger binding; sequences stand for … in GC…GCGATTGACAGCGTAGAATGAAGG
The threshold is inclusive: PBM binding z-score of exactly 1 counts as 1 (yes); values below receive 0 (no).

{"seq": "TCTATTAGTTGATTAGGGCGACCGAAACAGCGGA", "subject_of_test": "PXR homodimer (NR concentration 270 nM)", "discrete_label": "0 (no)"}
{"seq": "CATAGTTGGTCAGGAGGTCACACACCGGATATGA", "subject_of_test": "PXR homodimer (NR concentration 270 nM)", "discrete_label": "1 (yes)"}
{"seq": "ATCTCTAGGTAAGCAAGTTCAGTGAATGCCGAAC", "subject_of_test": "PXR homodimer (NR concentration 270 nM)", "discrete_label": "1 (yes)"}
{"seq": "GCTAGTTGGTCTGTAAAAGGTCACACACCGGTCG", "subject_of_test": "PXR homodimer (NR concentration 270 nM)", "discrete_label": "1 (yes)"}
{"seq": "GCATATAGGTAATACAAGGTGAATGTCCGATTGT", "subject_of_test": "PXR homodimer (NR concentration 270 nM)", "discrete_label": "0 (no)"}
{"seq": "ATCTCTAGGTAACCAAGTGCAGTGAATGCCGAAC", "subject_of_test": "PXR homodimer (NR concentration 270 nM)", "discrete_label": "0 (no)"}

----------
system: RXRa DBDmut IVT, anti-RXR (DBD mutation: RXRa K156A/R161A, NR concentration 90 nM); assay: PBM binding z-score (relative to random genomic background probes); higher = stronger binding; sequences stand for … in GC…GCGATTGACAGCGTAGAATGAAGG
The threshold is inclusive: PBM binding z-score of exactly 0.5 counts as satisfied; values below receive not satisfied.

{"seq": "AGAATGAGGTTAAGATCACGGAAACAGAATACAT", "discrete_label": "satisfied"}
{"seq": "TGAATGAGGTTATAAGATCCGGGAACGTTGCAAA", "discrete_label": "satisfied"}
{"seq": "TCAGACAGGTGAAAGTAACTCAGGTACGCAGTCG", "discrete_label": "satisfied"}
{"seq": "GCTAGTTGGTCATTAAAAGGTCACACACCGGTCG", "discrete_label": "satisfied"}
{"seq": "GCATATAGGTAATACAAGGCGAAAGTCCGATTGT", "discrete_label": "satisfied"}
{"seq": "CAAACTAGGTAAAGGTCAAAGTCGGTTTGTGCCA", "discrete_label": "satisfied"}
{"seq": "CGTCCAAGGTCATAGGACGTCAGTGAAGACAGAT", "discrete_label": "satisfied"}
{"seq": "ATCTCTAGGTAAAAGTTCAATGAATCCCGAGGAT", "discrete_label": "satisfied"}
{"seq": "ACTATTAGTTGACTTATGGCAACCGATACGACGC", "discrete_label": "satisfied"}
{"seq": "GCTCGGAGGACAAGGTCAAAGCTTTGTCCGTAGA", "discrete_label": "satisfied"}
{"seq": "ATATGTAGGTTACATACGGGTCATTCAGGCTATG", "discrete_label": "satisfied"}
{"seq": "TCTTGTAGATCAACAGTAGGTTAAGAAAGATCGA", "discrete_label": "satisfied"}
{"seq": "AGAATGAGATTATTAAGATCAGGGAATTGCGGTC", "discrete_label": "not satisfied"}
{"seq": "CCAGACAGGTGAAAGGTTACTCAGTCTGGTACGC", "discrete_label": "not satisfied"}
{"seq": "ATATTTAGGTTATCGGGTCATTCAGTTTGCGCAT", "discrete_label": "satisfied"}
{"seq": "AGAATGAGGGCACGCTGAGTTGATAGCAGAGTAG", "discrete_label": "satisfied"}
{"seq": "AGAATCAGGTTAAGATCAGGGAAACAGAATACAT", "discrete_label": "not satisfied"}
{"seq": "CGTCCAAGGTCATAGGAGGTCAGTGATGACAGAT", "discrete_label": "satisfied"}
{"seq": "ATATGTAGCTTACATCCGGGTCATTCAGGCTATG", "discrete_label": "satisfied"}
{"seq": "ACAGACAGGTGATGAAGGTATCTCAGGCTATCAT", "discrete_label": "not satisfied"}
{"seq": "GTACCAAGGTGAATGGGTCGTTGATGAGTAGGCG", "discrete_label": "not satisfied"}
{"seq": "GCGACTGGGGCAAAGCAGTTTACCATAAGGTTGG", "discrete_label": "not satisfied"}
{"seq": "AATACAGGGTCACTAGGCCAAAGTAGGTACGAAT", "discrete_label": "satisfied"}
{"seq": "TCAGACAGGTAAAGGTAACTCAGGTACGCAGTCG", "discrete_label": "satisfied"}
{"seq": "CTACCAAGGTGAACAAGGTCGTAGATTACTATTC", "discrete_label": "satisfied"}
{"seq": "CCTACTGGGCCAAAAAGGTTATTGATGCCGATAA", "discrete_label": "not satisfied"}
{"seq": "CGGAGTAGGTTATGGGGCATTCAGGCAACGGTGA", "discrete_label": "not satisfied"}
{"seq": "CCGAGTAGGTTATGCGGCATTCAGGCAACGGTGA", "discrete_label": "not satisfied"}
{"seq": "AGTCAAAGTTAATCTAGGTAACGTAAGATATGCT", "discrete_label": "not satisfied"}
{"seq": "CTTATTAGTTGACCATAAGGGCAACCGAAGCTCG", "discrete_label": "satisfied"}
{"seq": "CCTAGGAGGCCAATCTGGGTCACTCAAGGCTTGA", "discrete_label": "not satisfied"}
